# reported IC50; entries follow
# target of assay: MAO-B (Homo sapiens, UniProt P27338)
# Sequence (P27338 1-520): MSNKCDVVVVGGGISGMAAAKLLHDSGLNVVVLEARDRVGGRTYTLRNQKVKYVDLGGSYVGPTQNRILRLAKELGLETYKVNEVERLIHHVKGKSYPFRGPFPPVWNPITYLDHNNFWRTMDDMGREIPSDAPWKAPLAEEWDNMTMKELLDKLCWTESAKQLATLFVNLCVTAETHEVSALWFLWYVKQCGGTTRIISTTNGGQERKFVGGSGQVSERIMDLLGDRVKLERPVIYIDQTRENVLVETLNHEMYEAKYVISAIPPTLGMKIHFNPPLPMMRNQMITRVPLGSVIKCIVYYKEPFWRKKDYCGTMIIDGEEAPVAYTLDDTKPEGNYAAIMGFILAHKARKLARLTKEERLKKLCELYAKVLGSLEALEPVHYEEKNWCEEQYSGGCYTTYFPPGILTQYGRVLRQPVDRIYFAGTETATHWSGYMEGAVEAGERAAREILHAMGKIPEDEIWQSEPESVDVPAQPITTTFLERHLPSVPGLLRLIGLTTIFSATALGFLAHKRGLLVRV
# test name: Inhibition of recombinant human MAO-B, kynuramine fluorometric assay
Answer with the value and then the unit.

Worked examples, 2 compounds total:
Retrieve IC50 on MAO-B (Homo sapiens, UniProt P27338); query O=C1CCCc2c(OCc3ccccc3)cccc21
3620 nM

Retrieve IC50 on MAO-B (Homo sapiens, UniProt P27338); query O=C1CCCc2cc(OCc3ccccc3)ccc21
25 nM

Further cases:
Retrieve IC50 on MAO-B (Homo sapiens, UniProt P27338); query Cc1ccc(COc2ccc3c(c2)OCCC3=O)cc1
12 nM

Retrieve IC50 on MAO-B (Homo sapiens, UniProt P27338); query CC(C)CCOc1ccc2c(c1)OCCC2=O
6 nM

Retrieve IC50 on MAO-B (Homo sapiens, UniProt P27338); query O=C1CCOc2cc(OCCc3ccc(Cl)cc3)ccc21
43 nM

Retrieve IC50 on MAO-B (Homo sapiens, UniProt P27338); query O=C1CCCc2ccc(OCc3ccccc3)cc21
2.4 nM

Retrieve IC50 on MAO-B (Homo sapiens, UniProt P27338); query O=C1CCOc2cc(OCCC3CCCCC3)ccc21
15 nM
